# target_under_test: NAMPT (Homo sapiens, UniProt P43490)
# Construct: His tag; host or cells: E. coli
# Sequence (P43490 whole entry): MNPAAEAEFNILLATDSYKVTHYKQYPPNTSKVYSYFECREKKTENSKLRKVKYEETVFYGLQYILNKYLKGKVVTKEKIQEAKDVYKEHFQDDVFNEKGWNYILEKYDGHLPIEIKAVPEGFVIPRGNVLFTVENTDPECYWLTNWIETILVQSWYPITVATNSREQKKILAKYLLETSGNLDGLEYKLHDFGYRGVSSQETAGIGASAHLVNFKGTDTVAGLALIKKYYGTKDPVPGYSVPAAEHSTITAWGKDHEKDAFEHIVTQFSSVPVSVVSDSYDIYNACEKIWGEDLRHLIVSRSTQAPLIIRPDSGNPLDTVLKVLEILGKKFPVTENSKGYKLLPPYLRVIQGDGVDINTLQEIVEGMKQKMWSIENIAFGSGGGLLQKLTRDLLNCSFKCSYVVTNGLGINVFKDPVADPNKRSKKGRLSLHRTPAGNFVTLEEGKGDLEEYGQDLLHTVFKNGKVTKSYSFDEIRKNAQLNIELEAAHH
# assay_protocol: Biochemical inhibition assay: NAMPT enzymatic reaction, NMN quantified by mass spectrometry
# condition_notes: NAMPT enzymatic reaction; read-out: Biochem IC50
Catalogue of compounds with associated IC50
The reply should contain only the number, in nM.

COc1c(Cl)ccc(S(=O)(=O)c2ccc(CNC(=O)c3cnc4nccn4c3)cc2)c1Cl: 6.6
CCOc1cccc(S(=O)(=O)c2ccc(CNC(=O)c3cnc4nccn4c3)cc2)c1F: 4

Let me check: `Cc1cc(F)cc(S(=O)(=O)c2ccc(CNC(=O)c3cc4ccncc4o3)cc2)c1` , system NAMPT (Homo sapiens, UniProt P43490), measured IC50 is 3.4

Let me check: `Cc1ccc(S(=O)(=O)c2ccc(CNC(=O)c3cc4cnccc4[nH]3)cc2)c(F)c1` , system NAMPT (Homo sapiens, UniProt P43490), measured IC50 is 11

Let me check: `CCOc1cc(S(=O)(=O)c2ccc(CNC(=O)c3cc4ccncc4o3)cc2)ccc1F` , system NAMPT (Homo sapiens, UniProt P43490), measured IC50 is 11
